Reported viability, T/C values follow for various compounds
# Test system: 282377-053-R-J1-PDC complex spheroids, viability;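 note: spheroids exposed to compounds for 7 days before readout; percent of vehicle DMSO control viability with 100% = untreated-like growth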
# Assay explanation: Anticancer human tumor 282377-053-R-J1-PDC patient-derived colon adenocarcinoma cell line growth inhibition [GQUAD]
# Experimental parameters: second compound 1 µM; first compound 3.16 µM; hits give low values
Numbers only; they are read as %.

These solved cases illustrate the format of a correct answer.
INSERT INTO results (compound, u, value_measured) VALUES
  ('Nc1ccn(C2OC(CO)C(O)C2(F)F)c(=O)n1 (centres undefined) + Cc1[nH]c2ccc(F)cc2c1-c1nc2c3cccnc3c3ncccc3c2[nH]1', '%', 23),
  ('C=CCn1c(=O)c2cnc(Nc3ccc(N4CCN(C)CC4)cc3)nc2n1-c1cccc(C(C)(C)O)n1 + CN(C)c1ccc(Nc2c3ccc(NC(=O)CCN4CCCC4)cc3nc3cc(NC(=O)CCN4CCCC4)ccc23)cc1', '%', 27.5);

Q: Output measured viability, T/C for this item: O=C(NO)c1cnc(N2CCN(S(=O)(=O)c3ccc4ccccc4c3)CC2)nc1 + Cc1cnc(CNC(=O)c2c(=O)c3ccc(N4CCCN(C)CC4)nc3n3c2sc2ccccc23)cn1
A: 0.05

Q: Report measured viability, T/C; entry is COc1ccc([C@@H](O)c2cc(-c3ncnc4cc(N5CCOCC5)ccc34)c(F)cc2Cl)nn1 + CN(C)c1ccc(Nc2c3ccc(NC(=O)CCN4CCCC4)cc3nc3cc(NC(=O)CCN4CCCC4)ccc23)cc1
A: 77.4

Q: Tell us which viability, T/C value is on record for Nc1ccn(C2OC(CO)C(O)C2(F)F)c(=O)n1 (centres undefined) + CN(C)c1ccc(Nc2c3ccc(NC(=O)CCN4CCCC4)cc3nc3cc(NC(=O)CCN4CCCC4)ccc23)cc1
A: 32.7

Q: Provide one value: measured viability, T/C of CC1COCCN1c1cc(C2(O)CC3CCC(C2)O3)c2cnn(-c3ccn[nH]3)c2n1 (centres undefined) + Cc1[nH]c2ccc(F)cc2c1-c1nc2c3cccnc3c3ncccc3c2[nH]1
A: 16.4

Q: Return viability, T/C (reported value) for this compound: CC(C)n1c(=O)n(C)c2cnc3cc(F)c(-c4ccc(OCCCN5CCCCC5)nc4)cc3c21 + CN(C)c1ccc(Nc2c3ccc(NC(=O)CCN4CCCC4)cc3nc3cc(NC(=O)CCN4CCCC4)ccc23)cc1
A: 105

Q: Consider the compound CC1COCCN1c1cc(C2(S(C)(=N)=O)CC2)nc(-c2ccnc3[nH]ccc23)n1 (centres undefined) + CN(C)c1ccc(Nc2c3ccc(NC(=O)CCN4CCCC4)cc3nc3cc(NC(=O)CCN4CCCC4)ccc23)cc1 and give its recorded viability, T/C.
A: 58.8

Q: Given COc1ncnc(C2CC2)c1-c1ncc2cnn(Cc3ccc(-c4nc(C(F)(F)F)cn4C(C)C)cc3)c2n1 + Cc1cnc(CNC(=O)c2c(=O)c3ccc(N4CCCN(C)CC4)nc3n3c2sc2ccccc23)cn1 , respond with its viability, T/C.
A: 57.9

Q: Please indicate viability, T/C recorded for O=C(c1cc(Cc2n[nH]c(=O)c3ccccc23)ccc1F)N1CCN(C(=O)C2CC2)CC1 + Cc1[nH]c2ccc(F)cc2c1-c1nc2c3cccnc3c3ncccc3c2[nH]1
A: 110

Q: Read the entry CC(C)n1c(=O)n(C)c2cnc3cc(F)c(-c4ccc(OCCCN5CCCCC5)nc4)cc3c21 + Cc1[nH]c2ccc(F)cc2c1-c1nc2c3cccnc3c3ncccc3c2[nH]1 and write its reported viability, T/C.
A: 98.4
